Task for the reader: assign each of the following compounds its reported Population Hoechst High Intensity Objects (%).
System: U2OS
TEST_SUMMARY: Multiplex assay against U2OS
Type: toxicity, cell-based
ASSAY_SETUP: human, 12 h, 10 µM, compound concentration 10 uM, replicate 2
Numbers only, in %.

STRUCTURE_AS_SMILES: O=C(NCCO)c1cccc(-c2cc(Nc3ccc(OC(F)(F)F)cc3)ncn2)c1
UOM: %
NUMERIC_VALUE: 2
//
STRUCTURE_AS_SMILES: CN(C)CCCc1cc(C(=O)Nc2ccc(-c3ccncc3)cc2)ccc1O.Cl.Cl
UOM: %
NUMERIC_VALUE: 1
//
STRUCTURE_AS_SMILES: O=C1COc2nccc(-c3ccccc3F)c2CN1Cc1cc(C(F)(F)F)cc(C(F)(F)F)c1
UOM: %
NUMERIC_VALUE: 5

Task: What reported Population Hoechst High Intensity Objects (%) corresponds to `CCNC1(C(N)=O)CCN(c2ncnc3c2nc(-c2ccccc2Cl)n3-c2ccc(Cl)cc2)CC1` on U2OS?
Output: 0

* * *

Test system: U2OS
TEST_SUMMARY: Multiplex assay against U2OS
Type: toxicity, cell-based
ASSAY_SETUP: human, 12 h, 10 µM, compound concentration 10 uM, replicate 1
RECORDED_ENDPOINT: Population Mitochondria Different-Phenotype (%)
Numbers only, in %.

Past entries and their recorded results:
COMPOUND: N#Cc1c(N)nc(SCc2csc(-c3ccc(Cl)cc3)n2)c(C#N)c1-c1ccc(OCCO)cc1
UOM: %
NUMERIC_VALUE: 37

COMPOUND: O=C1COc2nccc(-c3ccccc3F)c2CN1Cc1cc(C(F)(F)F)cc(C(F)(F)F)c1
UOM: %
NUMERIC_VALUE: 27

COMPOUND: Cc1ccc(C(C)(O)c2nc3ccccc3s2)c(C)c1 (stereo unspecified)
UOM: %
NUMERIC_VALUE: 3

Look at each compound and report its Population Mitochondria Different-Phenotype (%).
1. CCNC1(C(N)=O)CCN(c2ncnc3c2nc(-c2ccccc2Cl)n3-c2ccc(Cl)cc2)CC1
2. N[C@@]1(C(=O)O)CO[C@H]2[C@H](C(=O)O)[C@H]21
3. Cl.Clc1ccc2nsnc2c1NC1=NCCN1 [TIZANIDINE HYDROCHLORIDE]
4. COc1ccc2c(c1)C(C(=O)N(Cc1ccc(N(C)C)cc1)c1ccc(C(C)C)cc1)CCC2.Cl (stereo unspecified)
5. CCCN1CCC[C@@H]2Cc3n[nH]cc3C[C@H]21.Cl [QUINPIROLE HYDROCHLORIDE]
6. CN1CCN2c3ncccc3Cc3ccccc3C2C1 (stereo unspecified)
7. C[C@@H]1C[C@H]2[C@@H]3CCC4=CC(=O)C=C[C@]4(C)[C@@]3(F)[C@@H](O)C[C@]2(C)[C@@]1(O)C(=O)CO

Output:
1: 63; 2: 2; 3: 2; 4: 55; 5: 0; 6: 5; 7: 1

* * *

Task for the reader: assign each of the following compounds its reported Population Healthy Nuclei (%).
Tested on: U2OS
TEST_SUMMARY: Multiplex assay against U2OS
Format: toxicity, cell-based
ASSAY_SETUP: human, 48 h, 10 µM, compound concentration 10 uM, replicate 2
Answers are plain numbers, in %.

COMPOUND: Cc1ccccc1C(=O)Nc1ccc(C(=O)N2CCCC(N(C)C)c3ccccc32)cc1.Cl (centres undefined)
Population Healthy Nuclei (%): 42

Look at each compound and report its Population Healthy Nuclei (%).
1. CNC[C@H](O)c1ccc(O)c(O)c1 [EPINEPHRINE]
2. Cc1ccc(F)cc1C(=O)Nc1ccc(C(=O)N2Cc3cccn3Cc3ccccc32)c(Cl)c1 [LIXIVAPTAN]
3. O=C(O)c1cc2ccccc2c(Cc2c(O)c(C(=O)O)cc3ccccc23)c1O [PAMOIC ACID]
4. C[C@H]1[C@H]2CC[C@H]3[C@@H]4CC=C5C[C@@H](N(C)C)CC[C@]5(C)[C@H]4CC[C@]23CN1C [CONESSINE]
5. Cc1ccc(C(C)(O)c2nc3ccccc3s2)c(C)c1 (centres undefined)

Output:
1. 40
2. 58
3. 66
4. 72
5. 83

Look at each compound and report its Population Healthy Nuclei (%).
1. COc1cc(NC(=O)CCN2CCC(OC(=O)Nc3ccccc3-c3ccccc3)CC2)c(Cl)cc1CNC[C@H](O)c1ccc(O)c2[nH]c(=O)ccc12 [BATEFENTEROL]
2. CC(=O)NCCc1c(Cc2ccccc2)[nH]c2ccccc12 [LUZINDOLE]
3. Cc1nc2ccc(Oc3ccc(F)cc3)cc2c(=O)n1C[C@H]1CCCN(C(C)C)C1.Cl

Output:
[32, 82, 51]

* * *

Task for the reader: assign each of the following compounds its reported Population Mitochondria Different-Phenotype (%).
Test system: HEK-293T
TEST_SUMMARY: Multiplex assay against HEK293T
Assay type: toxicity, cell-based
ASSAY_SETUP: human, 12 h, 10 µM, compound concentration 10 uM, replicate 2

Past entries and their recorded results:
STRUCTURE_AS_SMILES: Cc1nc2ccc(Oc3ccc(F)cc3)cc2c(=O)n1C[C@H]1CCCN(C(C)C)C1.Cl
RESULT: 94%
--
STRUCTURE_AS_SMILES: COc1ccccc1N1CCN(CCCCNC(=O)c2ccc3ccccc3c2)CC1.Cl
RESULT: 93%

Task: Entry `CCCn1c(=O)c2[nH]c(C3CCCC3)nc2n(CCC)c1=O` : reported Population Mitochondria Different-Phenotype (%) = ?
Output: 68%

* * *

Test system: U2OS
TEST_SUMMARY: Multiplex assay against U2OS
Type: toxicity, cell-based
ASSAY_SETUP: human, 12 h, 1 µM, compound concentration 1 uM, replicate 1
Task for the reader: assign each of the following compounds its reported Population Mitochondria Different-Phenotype (%).
Give bare numbers, in %.

COMPOUND: CSCC[C@H](NC=O)C(=O)N[C@@H](CC(C)C)C(=O)N[C@@H](Cc1ccccc1)C(=O)O
UOM: %
NUMERIC_VALUE: 4
--
COMPOUND: O=C(O)Cc1ccccc1Nc1c(Cl)cccc1Cl
UOM: %
NUMERIC_VALUE: 4
--
COMPOUND: Cl.Clc1ccc2nsnc2c1NC1=NCCN1 [TIZANIDINE HYDROCHLORIDE]
UOM: %
NUMERIC_VALUE: 1

Look at each compound and report its Population Mitochondria Different-Phenotype (%).
1. CN1CCN2c3ncccc3Cc3ccccc3C2C1 (stereo unspecified)
2. CC[C@H]1OC(=O)[C@H](C)[C@@H](O[C@H]2C[C@@](C)(OC)[C@@H](O)[C@H](C)O2)[C@H](C)[C@@H](O[C@@H]2O[C@H](C)C[C@H](N(C)C)[C@H]2O)[C@@]2(C)CC(C)=C(O2)[C@H](C)[C@@H](O)[C@]1(C)O
3. O=C(NCCO)c1cccc(-c2cc(Nc3ccc(OC(F)(F)F)cc3)ncn2)c1

Output:
[1, 23, 3]

* * *

Task for the reader: assign each of the following compounds its reported Population Fragmented Nuclei (%).
System: HEK-293T
TEST_SUMMARY: Multiplex assay against HEK293T
Format: toxicity, cell-based
ASSAY_SETUP: human, 48 h, 10 µM, compound concentration 10 uM, replicate 1
Answers are plain numbers, in %.

Past entries and their recorded results:
COMPOUND: COc1c(C)cc(NC(=O)c2nn(Cc3ccc(F)cc3)c3c2CN(C(=O)c2ccc[nH]2)C[C@]3(C)C(N)=O)cc1C
Population Fragmented Nuclei (%): 8
//
COMPOUND: Cc1ccc(-c2ccc(F)cc2COc2ccc(CCC(=O)O)cc2)cc1
Population Fragmented Nuclei (%): 12
//
COMPOUND: Cc1ccc(/C(=C\CN2CCCC2)c2ccccn2)cc1 [TRIPROLIDINE]
Population Fragmented Nuclei (%): 16
//
COMPOUND: CN(C)c1ccnc2sc3c(=O)n(N4CCCCCC4)cnc3c12
Population Fragmented Nuclei (%): 15

Look at each compound and report its Population Fragmented Nuclei (%).
1. CSc1ccccc1N1CCN(CCCCCC(=O)NC2CCCc3ccccc32)CC1.Cl (stereo not given)
2. CCCn1c(=O)c2[nH]c(C3CCCC3)nc2n(CCC)c1=O
3. CN(C)CCCc1cc(C(=O)Nc2ccc(-c3ccncc3)cc2)ccc1O.Cl.Cl
4. O=C1COc2nccc(-c3ccccc3F)c2CN1Cc1cc(C(F)(F)F)cc(C(F)(F)F)c1
5. O=C(O)Cc1ccccc1Nc1c(Cl)cccc1Cl [DICLOFENAC]
6. C[C@@H]1C[C@H]2[C@@H]3CCC4=CC(=O)C=C[C@]4(C)[C@@]3(F)[C@@H](O)C[C@]2(C)[C@@]1(O)C(=O)CO [DEXAMETHASONE]

Output:
11
14
17
13
12
15

* * *

Test system: HEK-293T
TEST_SUMMARY: Multiplex assay against HEK293T
Type: toxicity, cell-based
ASSAY_SETUP: human, 12 h, 1 µM, compound concentration 1 uM, replicate 1
class 1 means recorded Population Healthy Nuclei (%) is 80% or above; class 0 means it is below 80%.

Look over these answered cases.
STRUCTURE_AS_SMILES: CN(C)c1ccnc2sc3c(=O)n(N4CCCCCC4)cnc3c12
ANSWER_LABEL: class 0

STRUCTURE_AS_SMILES: CC(C)(C)c1ccc(S(=O)(=O)Nc2ccc(Cl)cc2C(=O)c2cc[n+]([O-])cc2)cc1
ANSWER_LABEL: class 0

STRUCTURE_AS_SMILES: O=C(O)c1cc2ccccc2c(Cc2c(O)c(C(=O)O)cc3ccccc23)c1O
ANSWER_LABEL: class 0

STRUCTURE_AS_SMILES: Oc1c(CN2CCN(c3ccccn3)CC2)cc(Cl)c2cccnc12
ANSWER_LABEL: class 1

Task: Hi, just wondering whether `Cc1ccc(/C(=C\CN2CCCC2)c2ccccn2)cc1` shows Population Healthy Nuclei (%) of 80% or higher.
Output: class 1
